Source listed as patent US20250304650A1.

Biological target: feline FcRn (FCN-F82W3, Acrobiosystems) (feline)
Assay: SPR Carterra, IgG coupled, pH 6.0
ASSAY ENDPOINT: kon (M⁻¹ s⁻¹)
Report only the number, with the unit M⁻¹ s⁻¹ understood.

Worked examples, 9 binders total:
anti-NGF feline IgG1a, Fc variant S434Y, E293K (antibody, part only; not given: anti-NGF variable domains, light chain, not shown: another chain or arm of the molecule; small tags and cut ends) Fc: PPEMLGGPSIFIFPPKPKDTLSISRTPEVTCLVVDLGPDDSDVQITWFVDNTQVYTAKTSPRKEQFNSTYRVVSVLPILHQDWLKGKEFKCKVNSKSLPSPIERTISKAKGQPHEPQVYVLPPAQEELSRNKVSVTCLIKSFHPPDIAVEWEITGQPEPENNYRTTPPQLDSDGTYFVYSKLSVDRSHWQRGNTYTCSVSHEALHYHHTQKSLTQSPGK ... 1.22e+06
anti-NGF feline IgG1a, Fc variant S428L, Q311V (antibody, part only; not given: Anti-NGF variable domains, not shown: another chain or arm of the molecule; small tags and cut ends) Fc: PPEMLGGPSIFIFPPKPKDTLSISRTPEVTCLVVDLGPDDSDVQITWFVDNTQVYTAKTSPREEQFNSTYRVVSVLPILHVDWLKGKEFKCKVNSKSLPSPIERTISKAKGQPHEPQVYVLPPAQEELSRNKVSVTCLIKSFHPPDIAVEWEITGQPEPENNYRTTPPQLDSDGTYFVYSKLSVDRSHWQRGNTYTCSVLHEALHSHHTQKSLTQSPGK ... 916000
anti-NGF feline IgG1a, Fc variant S434Y, L262E (antibody, part only; not given: Anti-NGF variable domains, not shown: another chain or arm of the molecule; small tags and cut ends) Fc: PPEMLGGPSIFIFPPKPKDTLSISRTPEVTCEVVDLGPDDSDVQITWFVDNTQVYTAKTSPREEQFNSTYRVVSVLPILHQDWLKGKEFKCKVNSKSLPSPIERTISKAKGQPHEPQVYVLPPAQEELSRNKVSVTCLIKSFHPPDIAVEWEITGQPEPENNYRTTPPQLDSDGTYFVYSKLSVDRSHWQRGNTYTCSVSHEALHYHHTQKSLTQSPGK ... 1.51e+06
anti-NGF feline IgG1a, Fc variant S428L, T286E (antibody, part only; not given: anti-NGF variable domains, not shown: another chain or arm of the molecule; small tags and cut ends) Fc: PPEMLGGPSIFIFPPKPKDTLSISRTPEVTCLVVDLGPDDSDVQITWFVDNTQVYEAKTSPREEQFNSTYRVVSVLPILHQDWLKGKEFKCKVNSKSLPSPIERTISKAKGQPHEPQVYVLPPAQEELSRNKVSVTCLIKSFHPPDIAVEWEITGQPEPENNYRTTPPQLDSDGTYFVYSKLSVDRSHWQRGNTYTCSVLHEALHSHHTQKSLTQSPGK ... 1.15e+06
anti-NGF feline IgG1a, Fc variant S428L, N389c-R (antibody, part only; not given: anti-NGF variable domains, light chain, not shown: another chain or arm of the molecule; small tags and cut ends) Fc: PPEMLGGPSIFIFPPKPKDTLSISRTPEVTCLVVDLGPDDSDVQITWFVDNTQVYTAKTSPREEQFNSTYRVVSVLPILHQDWLKGKEFKCKVNSKSLPSPIERTISKAKGQPHEPQVYVLPPAQEELSRNKVSVTCLIKSFHPPDIAVEWEITGQPEPERNYRTTPPQLDSDGTYFVYSKLSVDRSHWQRGNTYTCSVLHEALHSHHTQKSLTQSPGK ... 1.14e+06
anti-NGF feline IgG1a, Fc variant S252R, L262Q (antibody, part only; not given: anti-NGF variable domains, light chain, not shown: another chain or arm of the molecule; small tags and cut ends) Fc: PPEMLGGPSIFIFPPKPKDTLRISRTPEVTCQVVDLGPDDSDVQITWFVDNTQVYTAKTSPREEQFNSTYRVVSVLPILHQDWLKGKEFKCKVNSKSLPSPIERTISKAKGQPHEPQVYVLPPAQEELSRNKVSVTCLIKSFHPPDIAVEWEITGQPEPENNYRTTPPQLDSDGTYFVYSKLSVDRSHWQRGNTYTCSVSHEALHSHHTQKSLTQSPGK ... 1.63e+06
anti-NGF feline IgG1a, Fc variant L309Y (antibody, part only; not given: anti-NGF variable domains, light chain, not shown: another chain or arm of the molecule; small tags and cut ends) Fc: PPEMLGGPSIFIFPPKPKDTLSISRTPEVTCLVVDLGPDDSDVQITWFVDNTQVYTAKTSPREEQFNSTYRVVSVLPIYHQDWLKGKEFKCKVNSKSLPSPIERTISKAKGQPHEPQVYVLPPAQEELSRNKVSVTCLIKSFHPPDIAVEWEITGQPEPENNYRTTPPQLDSDGTYFVYSKLSVDRSHWQRGNTYTCSVSHEALHSHHTQKSLTQSPGK ... 600000
anti-NGF feline IgG1a, Fc variant R301L (antibody, part only; not given: anti-NGF variable domains, not shown: another chain or arm of the molecule; small tags and cut ends) Fc: PPEMLGGPSIFIFPPKPKDTLSISRTPEVTCLVVDLGPDDSDVQITWFVDNTQVYTAKTSPREEQFNSTYLVVSVLPILHQDWLKGKEFKCKVNSKSLPSPIERTISKAKGQPHEPQVYVLPPAQEELSRNKVSVTCLIKSFHPPDIAVEWEITGQPEPENNYRTTPPQLDSDGTYFVYSKLSVDRSHWQRGNTYTCSVSHEALHSHHTQKSLTQSPGK ... 457000
anti-NGF feline IgG1a, Fc variant S434F, E380D (antibody, part only; not given: anti-NGF variable domains, light chain, not shown: another chain or arm of the molecule; small tags and cut ends) Fc: PPEMLGGPSIFIFPPKPKDTLSISRTPEVTCLVVDLGPDDSDVQITWFVDNTQVYTAKTSPREEQFNSTYRVVSVLPILHQDWLKGKEFKCKVNSKSLPSPIERTISKAKGQPHEPQVYVLPPAQEELSRNKVSVTCLIKSFHPPDIAVDWEITGQPEPENNYRTTPPQLDSDGTYFVYSKLSVDRSHWQRGNTYTCSVSHEALHFHHTQKSLTQSPGK ... 1.77e+06

Continue with the next binder.
Suppose we examine the binder anti-NGF feline IgG1a, Fc variant L309V (antibody, part only; not given: anti-NGF variable domains, light chain, not shown: another chain or arm of the molecule; small tags and cut ends) Fc: PPEMLGGPSIFIFPPKPKDTLSISRTPEVTCLVVDLGPDDSDVQITWFVDNTQVYTAKTSPREEQFNSTYRVVSVLPIVHQDWLKGKEFKCKVNSKSLPSPIERTISKAKGQPHEPQVYVLPPAQEELSRNKVSVTCLIKSFHPPDIAVEWEITGQPEPENNYRTTPPQLDSDGTYFVYSKLSVDRSHWQRGNTYTCSVSHEALHSHHTQKSLTQSPGK ; what kon value has been reported?
353000
